Each item that follows carries a reported log10 EC50.
# target.system: human GPR40 (Homo sapiens)
# protocol.notes: Induction of Ca2+ (calcium flux assay) using human GPR40 expression cell line
# cond: read-out: EC0.5
reported.metric: log10 EC50 (log10 of the value in nM)

>  <molecule>
CC#C[C@@H](CC(=O)O)c1ccc(OCc2cccc3nn(Cc4ccc(F)cc4)cc23)cc1

>  <reported.value>
1.48

$$$$
>  <molecule>
CC#C[C@@H](CC(=O)O)c1ccc(OCc2ccc3c(CN4CCCC4)nn(CC(C)C)c3c2C)cc1

>  <reported.value>
1.30

$$$$
>  <molecule>
CC#C[C@@H](CC(=O)O)c1ccc(OCc2cccc3c(Br)nn(C)c23)cc1

>  <reported.value>
0.78

$$$$
>  <molecule>
O=C(O)C[C@@H](c1ccc(OCc2ccc3cnn(CC4CC4)c3c2)cc1)c1ccon1

>  <reported.value>
1.70

$$$$
>  <molecule>
CC#C[C@@H](CC(=O)O)c1ccc(OCc2ccc3ccn(Cc4ccccc4F)c3c2C)cc1

>  <reported.value>
1.60

$$$$
>  <molecule>
Cc1cc(COc2ccc3c(c2)OCCC3CC(=O)O)cc2cnn(Cc3ccccc3)c12 (centres unmarked)

>  <reported.value>
1.90

$$$$

---

# target.system: human GPR40 (Homo sapiens, UniProt O14842)
# Sequence (O14842 whole entry): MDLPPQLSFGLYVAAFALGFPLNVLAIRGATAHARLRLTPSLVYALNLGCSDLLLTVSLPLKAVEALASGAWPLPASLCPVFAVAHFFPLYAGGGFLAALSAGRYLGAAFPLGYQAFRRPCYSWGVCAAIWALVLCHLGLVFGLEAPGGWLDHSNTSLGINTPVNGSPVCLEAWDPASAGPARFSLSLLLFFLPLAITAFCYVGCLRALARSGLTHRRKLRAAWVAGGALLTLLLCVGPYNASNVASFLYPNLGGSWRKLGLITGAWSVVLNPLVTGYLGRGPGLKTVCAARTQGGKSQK
# protocol.notes: Induction of Ca2+ (calcium flux assay) using human GPR40 expression cell line
# cond: read-out: EC0.5
pEC50: −log10 of the molar value.
Each item that follows carries a reported pEC50.

>  <molecule>
CC#C[C@@H](CC(=O)O)c1ccc(OCc2ccc3cn(Cc4cnc(C)cn4)nc3c2)cc1 [Example 74]

>  <target.system>
human GPR40 (Homo sapiens, UniProt O14842)

>  <pEC50>
≤ 6.30

$$$$
>  <molecule>
CC#C[C@@H](CC(=O)O)c1ccc(OCc2cc3c(ccn3Cc3ccccc3)cc2F)cc1 [Example 41]

>  <target.system>
human GPR40 (Homo sapiens, UniProt O14842)

>  <pEC50>
7.30 to 9.00

$$$$
>  <molecule>
CC#C[C@@H](CC(=O)O)c1ccc(OCc2cccc3c2cnn3CC(C)C)cc1 [Example 184]

>  <target.system>
human GPR40 (Homo sapiens, UniProt O14842)

>  <pEC50>
7.30 to 9.00

$$$$
>  <molecule>
CC#C[C@@H](CC(=O)O)c1ccc(OCc2ccc3cnn(CC(C)(C)C)c3c2)cc1 [Example 182]

>  <target.system>
human GPR40 (Homo sapiens, UniProt O14842)

>  <pEC50>
7.30 to 9.00

$$$$
>  <molecule>
CCOCCn1ncc2cc(COc3ccc4c(c3)OCCC4CC(=O)O)ccc21 (centres unmarked) [Example 149]

>  <target.system>
human GPR40 (Homo sapiens, UniProt O14842)

>  <pEC50>
≤ 6.30

$$$$
>  <molecule>
CC#C[C@@H](CC(=O)O)c1ccc(OCc2ccc3c(cnn3CC3CCCC3)c2)cc1 [Example 163]

>  <target.system>
human GPR40 (Homo sapiens, UniProt O14842)

>  <pEC50>
7.30 to 9.00

$$$$
>  <molecule>
CC#C[C@@H](CC(=O)O)c1ccc(OCc2ccc3c(CN4CCC(F)(F)C4)nn(CC(C)C)c3c2C)cc1 [Example 230]

>  <target.system>
human GPR40 (Homo sapiens, UniProt O14842)

>  <pEC50>
7.30 to 9.00

$$$$
>  <molecule>
Cc1ccccc1-c1cn(C)c2ccc(COc3ccc(CCC(=O)O)cc3)cc12 [Example 21]

>  <target.system>
human GPR40 (Homo sapiens, UniProt O14842)

>  <pEC50>
≤ 6.30

$$$$

---

# target.system: human GPR40 (Homo sapiens, UniProt O14842)
# protocol.notes: Induction of Ca2+ (calcium flux assay) using human GPR40 expression cell line
# cond: read-out: EC0.5
Each item that follows carries a reported EC50.
reported.metric: EC50

>  <molecule>
CC#C[C@@H](CC(=O)O)c1ccc(OCc2cccc3c2c(F)nn3C(C)C)cc1

>  <reported.metric>
EC50

>  <reported.value>
1 to 50 nM

$$$$
>  <molecule>
O=C(O)CC1CCOc2cc(OCc3ccc4c(cnn4Cc4cccnc4)c3)ccc21 (stereo not shown)

>  <reported.metric>
EC50

>  <reported.value>
≥ 500 nM

$$$$
>  <molecule>
CC#C[C@@H](CC(=O)O)c1ccc(OCc2ccc3c(cnn3Cc3ccccn3)c2)cc1

>  <reported.metric>
EC50

>  <reported.value>
1 to 50 nM

$$$$
>  <molecule>
CC#C[C@@H](CC(=O)O)c1ccc(OCc2cnc3c(ccn3Cc3ccccc3)c2)cc1

>  <reported.metric>
EC50

>  <reported.value>
1 to 50 nM

$$$$
>  <molecule>
CC#C[C@@H](CC(=O)O)c1ccc(OCc2cccc3c(CC(C)C)nn(C)c23)cc1

>  <reported.metric>
EC50

>  <reported.value>
1 to 50 nM

$$$$
>  <molecule>
Cc1cnc(Cn2ccc3ccc(COc4ccc([C@H](CC(=O)O)c5ccon5)cc4)c(C)c32)cn1

>  <reported.metric>
EC50

>  <reported.value>
1 to 50 nM

$$$$
>  <molecule>
CC#C[C@@H](CC(=O)O)c1ccc(OCc2ccc3c(cnn3Cc3ccccc3)c2)cc1

>  <reported.metric>
EC50

>  <reported.value>
1 to 50 nM

$$$$
>  <molecule>
O=C(O)CCc1ccc(NCc2ccc3ccn(-c4ccsc4)c3c2Cl)cc1

>  <reported.metric>
EC50

>  <reported.value>
≥ 500 nM

$$$$
>  <molecule>
CC#C[C@@H](CC(=O)O)c1ccc(OCc2ccc3c(F)cn(Cc4ccccc4)c3c2C)cc1

>  <reported.metric>
EC50

>  <reported.value>
50 to 500 nM

$$$$
>  <molecule>
CC#C[C@@H](CC(=O)O)c1ccc(OCc2ccc3ccn(Cc4ncccn4)c3c2C)cc1

>  <reported.metric>
EC50

>  <reported.value>
50 to 500 nM

$$$$
>  <molecule>
CC#C[C@@H](CC(=O)O)c1ccc(OCc2ccc3cnn(CC4(C)COC4)c3c2)cc1

>  <reported.metric>
EC50

>  <reported.value>
1 to 50 nM

$$$$
>  <molecule>
CC#C[C@@H](CC(=O)O)c1ccc(OCc2ccc3ccn(Cc4cccc(C(F)(F)F)c4)c3c2C)cc1

>  <reported.metric>
EC50

>  <reported.value>
50 to 500 nM

$$$$
>  <molecule>
COC(CC(=O)O)c1ccc(OCc2ccc3c(cnn3Cc3ccccc3)c2)cc1 (stereo not shown)

>  <reported.metric>
EC50

>  <reported.value>
50 to 500 nM

$$$$
>  <molecule>
O=C(O)CCc1ccc(OCc2cccc3c2ccn3Cc2ccccc2)cc1F

>  <reported.metric>
EC50

>  <reported.value>
50 to 500 nM

$$$$
>  <molecule>
CC#C[C@@H](CC(=O)O)c1ccc(OCc2ccc3cnn(Cc4ncccn4)c3c2)cc1

>  <reported.metric>
EC50

>  <reported.value>
50 to 500 nM

$$$$
>  <molecule>
CC#C[C@@H](CC(=O)O)c1ccc(OCc2ccc3cn(Cc4ccccc4)nc3c2)cc1

>  <reported.metric>
EC50

>  <reported.value>
1 to 50 nM

$$$$

---

Each item that follows carries a reported pEC50.
# target.system: human GPR40 (Homo sapiens, UniProt O14842)
# protocol.notes: Induction of Ca2+ (calcium flux assay) using human GPR40 expression cell line
# cond: read-out: EC0.5
pEC50: −log10 of the molar value.
reported.metric: pEC50

>  <compound>
CC#C[C@@H](CC(=O)O)c1ccc(OCc2cccc3c2cnn3C(C)C)cc1

>  <reported.value>
7.40

$$$$
>  <compound>
CC#C[C@@H](CC(=O)O)c1ccc(OCc2cc3c(cnn3CC(C)C)cc2F)cc1

>  <reported.value>
8.52

$$$$
>  <compound>
O=C(O)CCc1ccc(NCc2ccc3ccn(CCc4ccccc4)c3c2)cc1

>  <reported.value>
7.30

$$$$
>  <compound>
O=C(O)CCc1ccc(NCc2ccc3c(Cl)cn(Cc4ccccc4)c3c2)cc1

>  <reported.value>
7.52

$$$$
>  <compound>
O=C(O)CCc1ccc(NCc2ccc3ccn(Cc4ccccc4)c3c2Cl)cc1

>  <reported.value>
7.70

$$$$
>  <compound>
CC#C[C@@H](CC(=O)O)c1ccc(OCc2ccc3ccn(Cc4ccccc4)c3c2Cl)cc1

>  <reported.value>
7.22

$$$$
>  <compound>
CC#C[C@@H](CC(=O)O)c1ccc(OCc2cccc3c2c(C)nn3CCCC)cc1

>  <reported.value>
7.80

$$$$
>  <compound>
CC(C)n1ncc2ccc(COc3ccc4c(c3)OCC4CC(=O)O)cc21 (stereo not drawn)

>  <reported.value>
6.22

$$$$
>  <compound>
CC(C)Cn1cc2ccc(COc3ccc([C@H](CC(=O)O)c4ccon4)cc3)cc2n1

>  <reported.value>
6.40

$$$$

Cited source: patent US9988379B2
